// provenance: PubChem BioAssay (NCI)

Exercise: for every item that follows, state its recorded TGI.
Test system: HCC-2998 colon
Assay procedure: NCI tumour cell line growth inhibition, 48 h
// return numeric value only (unit: µM, not printed)

Query string: I have this compound here, Cn1cc(CNCC2CCN(c3ncc(C(=O)NO)cn3)CC2)c2ccccc21 , and I need its recorded TGI.
Result string: 0.0837

Query string: I have this compound here, O=C(OC[C@H]1O[C@@H](OC(=O)c2cc(O)c(O)c(O)c2)[C@H](OC(=O)c2cc(O)c(O)c(O)c2)[C@@H](OC(=O)c2cc(O)c(O)c(O)c2)[C@@H]1OC(=O)c1cc(O)c(O)c(O)c1)c1cc(O)c(O)c(O)c1 , and I need its recorded TGI.
Result string: 12.3

* * *

Test system: EKVX NSCLC
Assay procedure: NCI tumour cell line growth inhibition, 48 h
Outcome measure: TGI (nM)
// return numeric value only (unit: nM, not printed)

Query string: I have this compound here, COc1ccc2c(c1)/c(=C/c1ccc(N(C)C)cc1)c1cc(-c3ccccc3)[n+](C)n12 , and I need its recorded TGI.
Result string: 1420

Query string: I have this compound here, Cc1cc(C)n(CN(Cn2nc(C)cc2C)C2CCCCC2)n1 , and I need its recorded TGI.
Result string: 84500

* * *

Tested on: HS 578T breast
Assay procedure: NCI tumour cell line growth inhibition, 48 h; in the data active = GI50 below about 0.43 µM; inactive = the rest
The categories you may choose from are 1 = active, 0 = inactive

Query string: What did the test return for COc1ccc(CN2c3ccccc3CCc3ccccc32)cc1F ?
Result string: 0

Query string: What did the test return for O=C1CCCN1CC#CCN1CCCC1 ?
Result string: 0

Query string: What did the test return for COc1cc(Cn2c(-c3nonc3N)nc3ccccc32)ccc1C ?
Result string: 1

Query string: What did the test return for CC(C)(C)NC(=O)[C@H]1C[C@H]2CCCC[C@H]2CN1C[C@@H](O)[C@H](Cc1ccccc1)NC(=O)[C@H](CC(N)=O)NC(=O)c1ccc2ccccc2n1 ?
Result string: 0

Query string: What did the test return for Cc1c2ccc(N(C)c3ccnc(Nc4cccc(S(N)(=O)=O)c4)n3)cc2nn1C ?
Result string: 0

* * *

Exercise: for every item that follows, state its recorded TGI.
Test system: M14 melanoma
Assay procedure: NCI tumour cell line growth inhibition, 48 h

Query string: I have this compound here, Cc1ccc2c(c1)C(c1cccc3ccccc13)OC2=O (stereo not given) , and I need its recorded TGI.
Result string: > 100 µM

Query string: I have this compound here, OC12CC/C(=N/OCc3ccccc3)CC1c1ccccc12 (stereo not given) , and I need its recorded TGI.
Result string: > 100 µM

Query string: I have this compound here, COc1ccc2nc3cc(Cl)ccc3c(NCCNCCCNC(=O)c3cc(-c4ccccc4)nc4ccccc34)c2c1 , and I need its recorded TGI.
Result string: > 100 µM

Query string: I have this compound here, COc1ccc(C2C(C#N)=C(S)N(C3OC(CO)C(O)C(O)C3O)C(c3ccccc3)=C2C(C)=O)cc1 (stereo not given) , and I need its recorded TGI.
Result string: > 100 µM

Query string: I have this compound here, Cc1c2c(OCCCCN3CCN(c4ncccn4)CC3)nn(C)c(=O)c2c(C)n1-c1ccccc1 , and I need its recorded TGI.
Result string: 35.9 µM

Query string: I have this compound here, COc1cc(C2SCC(=O)N2c2ccc(Oc3ccc(Cl)cc3)c(Cl)c2)cc(OC)c1OC (stereo not given) , and I need its recorded TGI.
Result string: 83.1 µM

Query string: I have this compound here, OCC1OC(n2cnc3c(/C=C(/O)c4ccccc4)ncnc32)C(O)C1O (stereo not given) , and I need its recorded TGI.
Result string: > 100 µM

Query string: I have this compound here, NNc1nncn1N , and I need its recorded TGI.
Result string: > 100 µM

Query string: I have this compound here, CC(=O)N1CCN(C23OC4(N5CCN(C(C)=O)CC5)C5C6CC(C7C6C4C72)C53)CC1 (stereo not given) , and I need its recorded TGI.
Result string: > 100 µM

Query string: I have this compound here, Cc1sc2ccccc2[n+]1CCC(=O)O , and I need its recorded TGI.
Result string: > 100 µM

* * *

Tested on: HS 578T breast
Assay procedure: NCI tumour cell line growth inhibition, 48 h
Outcome measure: TGI

Query string: Observed TGI on HS 578T breast for Cn1cnc2c(sc3nc4ccccc4n32)c1=N , please.
Result string: > 100 µM

Query string: Observed TGI on HS 578T breast for COc1ccc(OC)c2c1C1CCC(=O)N1CN2C(C)=O (stereo unspecified) , please.
Result string: > 100 µM

Query string: Observed TGI on HS 578T breast for Cc1ccc(S(=O)(=O)N=Nc2c(O)[nH]c3c(Cl)cc(Cl)cc23)cc1 , please.
Result string: > 100 µM

Query string: Observed TGI on HS 578T breast for CSC1=NS(=O)(=O)c2cc(C(=O)NN(C)C(=O)c3cc4c(cc3Cl)SC(SC)=NS4(=O)=O)c(Cl)cc2S1 , please.
Result string: > 10 µM

Query string: Observed TGI on HS 578T breast for Oc1ccccc1-c1nc2c3ccccc3c3ccccc3c2[nH]1 , please.
Result string: 29.7 µM

Query string: Observed TGI on HS 578T breast for O=C1CCCN1CC#CCN1CCCC1 , please.
Result string: > 100 µM

Query string: Observed TGI on HS 578T breast for C[C@]12CC[C@@H]3c4ccc(O)cc4C(O)C[C@H]3[C@@H]1CCC2=O (stereo partly specified) , please.
Result string: > 100 µM

Query string: Observed TGI on HS 578T breast for Cc1ccc(-c2n[nH]c(=O)[nH]2)cc1[N+](=O)[O-] , please.
Result string: > 100 µM

Query string: Observed TGI on HS 578T breast for CN(Cc1cnc2nc(N)nc(N)c2n1)c1ccc(C(=O)NC(CCC(=O)NC(P(=O)(O)O)P(=O)(O)O)C(=O)O)cc1 (stereo unspecified) , please.
Result string: > 100 µM

Query string: Observed TGI on HS 578T breast for COc1ccc(Cn2c(Cl)c(/C=C3/C(=O)Nc4ccccc43)c3cc(OC)c(C)cc32)cc1 , please.
Result string: > 100 µM

Query string: Observed TGI on HS 578T breast for Nc1ccc2[nH]c(C(=O)N3CC(CCl)c4c3cc(N)c3ccccc43)cc2c1 (stereo unspecified) , please.
Result string: 0.057 µM

Query string: Observed TGI on HS 578T breast for COC1CC(OC(=O)c2ccccc2)C(OC(=O)c2ccccc2)C(C)O1 (stereo unspecified) , please.
Result string: > 100 µM

Query string: Observed TGI on HS 578T breast for COc1cc(S(C)(=O)=O)ccc1Nc1nc2ccc(-c3ccc(NC(=O)[C@H](C)c4ccc(F)cc4)cc3)cn2n1 , please.
Result string: > 100 µM

Query string: Observed TGI on HS 578T breast for CC(=O)OCC=C(CCl)CCC(Br)C(C)(C)Br (mixture of isomers) , please.
Result string: > 10 µM

Query string: Observed TGI on HS 578T breast for COc1cccc(-c2cc(=O)c3ccc(C)nc3[nH]2)c1 , please.
Result string: > 100 µM

Query string: Observed TGI on HS 578T breast for COc1cc(Cn2c(-c3nonc3N)nc3ccccc32)ccc1C , please.
Result string: 24.4 µM

Query string: Observed TGI on HS 578T breast for CC(=O)c1cc2ccccc2n(O)c1=N , please.
Result string: > 100 µM

Query string: Observed TGI on HS 578T breast for COc1cc(/C=C2/N=C(c3ccccc3)N(C3=NNC4(C(=O)N3)c3ccccc3-c3ccccc34)NC2=O)ccc1O , please.
Result string: 42.5 µg/mL

Query string: Observed TGI on HS 578T breast for CN(C)C(=O)O[C@@H]1CN[C@@H](C#Cc2cc3ncnc(Nc4ccc(OCc5cccc(F)c5)c(Cl)c4)c3s2)C1 , please.
Result string: > 25 µM

Query string: Observed TGI on HS 578T breast for Cc1nc(C(N)=S)sc1C(=O)C/C(=N/N)C(=O)Nc1cccc(Cl)c1C , please.
Result string: > 100 µM

Query string: Observed TGI on HS 578T breast for Cc1cc(N/N=C/c2nc(-c3ccc(Cl)cc3)oc2C)c2cc(Cl)ccc2n1 , please.
Result string: 14.7 µM

* * *

Exercise: for every item that follows, state its recorded TGI.
Tested on: DU-145 prostate
Assay procedure: NCI tumour cell line growth inhibition, 48 h
// return numeric value only (unit: µM, not printed)

Query string: I have this molecule here, COc1cc2nc(-c3ccc(C(F)(F)F)cc3)cc(OCCCN3CCCCC3)c2cc1OC , and I need its recorded TGI.
Result string: 16.5

Query string: I have this molecule here, CCCCCCN(CCCCCC)CC(O)c1ccc2c3c(cccc13)CC2 (stereo not given) , and I need its recorded TGI.
Result string: 24.7

Query string: I have this molecule here, COc1ccc(C2CC(n3nnnc3-c3ccccc3)=NN2)cc1 (stereo not given) , and I need its recorded TGI.
Result string: 49.3

Query string: I have this molecule here, NC(=O)c1ccc(C2C3=C(CCCC3=O)OC3=C2C(=O)c2ccccc2C3=O)cc1 (stereo not given) , and I need its recorded TGI.
Result string: 1.59
